# System: CP286
# Experimental details: qHTS profiling for inhibitors of Plasmodium falciparum proliferation (AID 504749); also: nearly all actives have a fitted effect of over 60% in size
# Experimental conditions: P. falciparum in erythrocytes, SYBR Green DNA, 72 h; series mostly up to 28.7 µM
Results filed as inconclusive are left out. Calls of active or inactive are those of the source. Calls follow the shape of the dose curve; as a rule, active = well fitted inhibition curve with a large enough effect; inconclusive = small, poorly fitted or top-dose-only effect; inactive = flat fitted curve, though single readings scatter.
Classes used: active, inactive

>  <Molecule>
CNC(=O)NC(O)C(Cl)(Cl)Cl (configuration not stated)

>  <Label class>
inactive

$$$$
>  <Molecule>
CC[C@]1(O)CC[C@H]2[C@@H]3CCC4=CCCC[C@@H]4[C@H]3CC[C@@]21C

>  <Label class>
inactive

$$$$
>  <Molecule>
Nc1ccc(N)cc1

>  <Label class>
inactive

$$$$
>  <Molecule>
COCC(=O)N(c1c(C)cccc1C)C(C)C(=O)OC (configuration not stated)

>  <Label class>
inactive

$$$$
>  <Molecule>
Clc1ccc(CO/N=C(\Cn2ccnc2)c2ccc(Cl)cc2Cl)c(Cl)c1

>  <Label class>
active

$$$$
>  <Molecule>
CNC(=O)Oc1cccc2ccccc12

>  <Label class>
inactive

$$$$
>  <Molecule>
O=C(O)c1nn(Cc2ccc(Cl)cc2Cl)c2ccccc12

>  <Label class>
inactive

$$$$
